- TESTED_TARGET: T1, native human CD30L expressed on Ramos cells (human, UniProt P32971 1-234)
- T1 sequence: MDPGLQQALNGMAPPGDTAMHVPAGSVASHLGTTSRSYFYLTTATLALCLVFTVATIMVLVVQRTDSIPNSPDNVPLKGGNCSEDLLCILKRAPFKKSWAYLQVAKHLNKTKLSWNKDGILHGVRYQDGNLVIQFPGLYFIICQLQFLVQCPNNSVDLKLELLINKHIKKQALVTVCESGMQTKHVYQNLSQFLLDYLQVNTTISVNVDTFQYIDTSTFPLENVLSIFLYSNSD
- ASSAY_OVERVIEW: cell-based or functional assay
Provide the recorded IC50, inhibition of IL-8 release (K299/Ramos dual cell assay) for the entries that follow.
Number only, in nM; omit the unit.

Req: Hello, please tell me recorded IC50, inhibition of IL-8 release (K299/Ramos dual cell assay) for this one: Antibody C (antibody, V domains shown, also called mAb C) VH: QVQLQESGPGLVKPSETLSLTCTVSGGSISSYYWTWIRQPAGKGLEWIGRIYTSGITNYNPSLKSRVTMSVDTSKNQFSLKLSSVTAADTAVYYCARERVVGASRYYYYGVDVWGQGTTVTVSS VL: QSALTQPASVSGSPGQSITISCTGTSSDIGLYDYVSWYQQHPDRAPKLIIFEVNNRPSGVSYRFSGSNSGNTASLTISGLQAEDEADYYCSSYTSSSTWVFGGGTKLTVL
Resp: 0.036

Req: State, in one line, measured IC50, inhibition of IL-8 release (K299/Ramos dual cell assay) of Antibody D (antibody, V domains shown, also called mAb D) VH: QVQLQESGPGLVKPSETLSLTCTVSGGSISSYSWSWIRQPAGKGLEWIGRTSTSGRNNYNPSLKSRVTMSVDTSKNQFSLKLNSVTAADTAVYYCARDFTIAARRYYYYGMDVWGQGTTVTVSS VL: QSALTQPASVSGSPGQSITISCTGTSSDIGLYNYVSWYQQHPGKAPKLIIYEVINRPSGVSNRFSGSESGNTASLTISGLQAEDEANYYCSSYTSSSTWVFGGGTKLTVL
Resp: 0.062

The measurements presented in this section are drawn from patent US20220112295A1.
